B1: Hairpin Ribozyme (parent)
chain: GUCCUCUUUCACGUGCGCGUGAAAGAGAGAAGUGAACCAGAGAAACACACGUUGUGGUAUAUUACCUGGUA

- Variants of: B1
- assay: self-cleavage, relative activity (ratio to wild type); higher = more cleavage; co-transcriptional
measurement_type: self-cleavage
Give your answer as a number; write no unit.

I am curious: what self-cleavage value has been reported for G21C G54A ? 0.392

I am curious: what self-cleavage value has been reported for U14C A36U ? 0.844

I am curious: what self-cleavage value has been reported for A35U A61G ? 0.137

I am curious: what self-cleavage value has been reported for G17C U55A ? 0.257

I am curious: what self-cleavage value has been reported for G32C A45G ? 0.0948

I am curious: what self-cleavage value has been reported for G15U U53C ? 1.04

I am curious: what self-cleavage value has been reported for C12G G54A ? 0.543

I am curious: what self-cleavage value has been reported for U8A U53A ? 0.763

I am curious: what self-cleavage value has been reported for A23C A26C ? 0.507

I am curious: what self-cleavage value has been reported for A24C A64G ? 0.503

I am curious: what self-cleavage value has been reported for C16G A35C ? 0.659

I am curious: what self-cleavage value has been reported for G21A U58G ? 0.554

I am curious: what self-cleavage value has been reported for C37G U63G ? 0.129

I am curious: what self-cleavage value has been reported for G15U A28U ? 0.765

I am curious: what self-cleavage value has been reported for G27C A31C ? 0.131

I am curious: what self-cleavage value has been reported for G19C G25U ? 0.623

I am curious: what self-cleavage value has been reported for G15U G29A ? 0.0502

I am curious: what self-cleavage value has been reported for G51A U67G ? 0.628

I am curious: what self-cleavage value has been reported for U20C C46G ? 0.117

I am curious: what self-cleavage value has been reported for G25A A47U ? 0.108

I am curious: what self-cleavage value has been reported for U14A G27C ? 0.196

I am curious: what self-cleavage value has been reported for U14A A49G ? 0.554

I am curious: what self-cleavage value has been reported for C12A G25A ? 0.486

I am curious: what self-cleavage value has been reported for A35G U58C ? 1.11

I am curious: what self-cleavage value has been reported for G15A U63A ? 0.116

I am curious: what self-cleavage value has been reported for C4A A61G ? 0.279

I am curious: what self-cleavage value has been reported for G21A U62G ? 0.163

I am curious: what self-cleavage value has been reported for U20C U60C ? 0.724

I am curious: what self-cleavage value has been reported for U14G C37A ? 0.276

I am curious: what self-cleavage value has been reported for A36G A71U ? 1.04
